molecular target: UniProt P35368; test: Antagonist activity at recombinant human alpha-1b adrenergic receptor assessed as inhibition of agonist-induced […] reporter based assay; assay type: functional
Sequence (P35368 whole entry): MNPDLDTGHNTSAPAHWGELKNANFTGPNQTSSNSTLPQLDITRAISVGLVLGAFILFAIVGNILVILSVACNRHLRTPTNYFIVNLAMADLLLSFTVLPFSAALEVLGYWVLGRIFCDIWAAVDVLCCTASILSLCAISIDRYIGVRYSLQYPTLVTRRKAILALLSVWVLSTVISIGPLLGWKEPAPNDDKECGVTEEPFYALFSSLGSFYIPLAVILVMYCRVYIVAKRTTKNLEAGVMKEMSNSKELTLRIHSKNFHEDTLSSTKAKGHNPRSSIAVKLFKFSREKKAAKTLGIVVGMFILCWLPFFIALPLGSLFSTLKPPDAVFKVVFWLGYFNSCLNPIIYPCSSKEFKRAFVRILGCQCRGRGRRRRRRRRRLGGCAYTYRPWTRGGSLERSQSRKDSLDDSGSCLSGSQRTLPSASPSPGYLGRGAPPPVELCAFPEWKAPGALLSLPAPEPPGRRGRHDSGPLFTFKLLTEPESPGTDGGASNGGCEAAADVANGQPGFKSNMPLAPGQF
recorded endpoint: inhibition (%)

Sample answers from the record:
> print(dat)
                         compound.structure  measurement.unit  reading
1        CN(CCCNC(=O)c1cccc(Br)c1)Cc1ccccc1                 %       97
2  CN(CCCNC(=O)c1ccc(C(F)(F)F)cc1)Cc1ccccc1                 %       70
3  CN(CCNC(=O)c1ccc([N+](=O)[O-])cc1)Cc1ccccc1                 %       84
4        CN(CCCNC(=O)c1ccc(Cl)cc1)Cc1ccccc1                 %       73

P: CCCc1ccc(C(=O)NCCCN(C)Cc2ccccc2)cc1
Q: COc1ccc(C(=O)NCCCN(C)Cc2ccccc2)cc1
stdin: Choose between P and Q : whose measured inhibition value is numerically larger? Identify your pick by its label.
stdout: P
(P: 72%, Q: 39%)

I: CN(CCCNC(=O)c1ccc([N+](=O)[O-])cc1)Cc1ccccc1
II: CN(CCCNC(=O)c1ccc(Cl)cc1)CCc1ccccc1
stdin: Choose between I and II : whose measured inhibition value is numerically larger? Identify your pick by its label.
stdout: II
(II: 98%, I: 63%)

1: CN(CCCNC(=O)c1ccc(Br)cc1)Cc1ccccc1
2: COc1cccc(C(=O)NCCCN(C)Cc2ccccc2)c1
stdin: Choose between 1 and 2 : whose measured inhibition value is numerically larger? Identify your pick by its label.
stdout: 1

----------
target: Substance-P receptor (Homo sapiens); assay: Antagonist activity at recombinant human NK1R assessed as inhibition of agonist-induced effect at 10 uM by aequorin reporter based assay; format: functional
recorded endpoint: inhibition (%)

Sample answers from the record:
> print(dat)
                    compound.structure                        system.tested  recorded.endpoint  measurement.unit  reading
1   CN(CCCNC(=O)c1cccc(Br)c1)Cc1ccccc1  Substance-P receptor (Homo sapiens)         inhibition                 %       58
2   CN(CCCNC(=O)c1ccc(Cl)cc1)Cc1ccccc1  Substance-P receptor (Homo sapiens)         inhibition                 %        3
3  CN(CCCNC(=O)c1ccc(Cl)cc1)CCc1ccccc1  Substance-P receptor (Homo sapiens)         inhibition                 %       41

a: CN(CCCNC(=O)c1ccc([N+](=O)[O-])cc1)Cc1ccccc1
b: COc1cccc(C(=O)NCCCN(C)Cc2ccccc2)c1
stdin: Choose between a and b : whose measured inhibition value is numerically larger? Identify your pick by its label.
stdout: a
(a: 21%, b: 10%)

A: CN(CCNC(=O)c1ccc(C#N)cc1)Cc1ccccc1
B: COc1ccc(C(=O)NCCCN(C)Cc2ccccc2)cc1
C: CN(CCCNC(=O)c1ccc(C(F)(F)F)cc1)Cc1ccccc1
stdin: Place the items in sequence of falling inhibition. Please express your ranking as an ordered list of the labels.
stdout: C, A, B
(C: 33%, A: 14%, B: 4%)

----------
target: Adenosine receptor A3 (Homo sapiens) (UniProt P0DMS8); assay: Antagonist activity at recombinant human adenosine A3 receptor assessed as inhibition of agonist-induced cAMP induction at 10 uM by HTRF assay; type: functional
Sequence (P0DMS8 whole entry): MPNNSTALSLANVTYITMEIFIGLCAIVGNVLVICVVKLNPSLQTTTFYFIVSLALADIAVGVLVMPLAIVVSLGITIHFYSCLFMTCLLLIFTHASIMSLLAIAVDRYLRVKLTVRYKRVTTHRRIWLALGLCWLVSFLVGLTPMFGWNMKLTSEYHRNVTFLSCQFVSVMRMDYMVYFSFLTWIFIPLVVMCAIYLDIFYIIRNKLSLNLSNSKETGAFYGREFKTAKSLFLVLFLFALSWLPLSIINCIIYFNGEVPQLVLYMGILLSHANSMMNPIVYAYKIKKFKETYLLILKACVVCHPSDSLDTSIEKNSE
recorded endpoint: inhibition (%)

Sample answers from the record:
> print(dat)
                         compound.structure  recorded.endpoint  reading
1         CN(CCNC(=O)c1ccc(Cl)cc1)Cc1ccccc1         inhibition       -1
2        CN(CCNC(=O)c1ccc(C#N)cc1)Cc1ccccc1         inhibition       -6
3        COc1ccc(C(=O)NCCCN(C)Cc2ccccc2)cc1         inhibition       12
4  CN(CCCNC(=O)c1ccc(C(F)(F)F)cc1)Cc1ccccc1         inhibition       18

1: CN(CCCNC(=O)c1ccc(Cl)cc1)Cc1ccccc1
2: CN(CCCNC(=O)c1ccc([N+](=O)[O-])cc1)Cc1ccccc1
3: CCCc1ccc(C(=O)NCCCN(C)Cc2ccccc2)cc1
4: CN(CCCNC(=O)c1ccc(Br)cc1)Cc1ccccc1
5: CN(CCNC(=O)c1ccc([N+](=O)[O-])cc1)Cc1ccccc1
stdin: Arrange these 5 compounds in increasing order of inhibition. Please express your ranking as an ordered list of the labels.
stdout: 2, 5, 3, 1, 4
(2: -7%, 5: 5%, 3: 8%, 1: 16%, 4: 24%)

Data origin: ChEMBL document CHEMBL4130363
